This collection of values is drawn from ChEMBL document CHEMBL3769343.

system: Influenza A virus; test: Antiviral activity against oseltamivir-resistant influenza A virus LN/1109 (H1N1) infected in dog MDCK cells assessed as inhibition of virus induced cytopathic effect after 40 hrs by Cell-Titer-Glo assay; format: functional, organism-based
measurement label: pEC50
# reply with the number alone; pEC50 is -log10 of concentration in mol/L

Solved cases below.
get_value(item= NC(=O)c1ncn([C@@H]2O[C@H](CO)[C@@H](O)[C@H]2O)n1 , readout=pEC50) returns 5.98

Reported pEC50 ( CCCc1c(Cl)c(O)cc(OC)c1Oc1c(Cl)c(O)c(Cl)c2c1C(=O)O[C@@H]2CC ) = 4.48

Pending compound:
Reported pEC50 of CCOC(=O)C1=C[C@@H](OC(CC)CC)[C@H](NC(C)=O)[C@@H](N)C1 : 6.09
